# IC50 per entry
Target: human constitutive proteasome (Beta5) (Homo sapiens (Human), UniProt P28074)
Assay: Determination of Beta5 activity (fluorescence intensity assay, Suc-LLVY-AMC)
Assay type: biochemical
Details: incubation for 20 minutes
Procedure: Determination of Beta5 Activity: Measurement of Beta5 inhibition is performed in 384 well format based on fluorescence intensity assay. Purified human constitutive proteasome (1.25 nM) and serial diluted compounds in DMSO (range of concentrations from 30 μM to 15 pM) or controls are incubated for 20 minutes or 120 minutes (long incubation) at 25° C. in assay buffer containing 50 mM Tris pH 7.4, 0.03% SDS, 1 mM EDTA and 1% DMSO. […]
MEASUREMENT KIND: IC50

1) C=CC(=O)N(c1ccccc1)[C@@H](C)C(=O)N[C@@H](Cc1ccc(C)c(C)c1)B(O)O
> 5 µM
2) C=CC(=O)N(CC(=O)N[C@@H](Cc1ccc(C)cc1C)B(O)O)c1ccccc1Cl
> 5 µM
3) C=CS(=O)(=O)N(C)CC(=O)N[C@@H](Cc1ccc(C)cc1C)B(O)O
0.5 to 5 µM
4) C=CC(=O)N(CCC)CC(=O)N[C@@H](Cc1ccc(C)cc1C)B(O)O
> 5 µM
5) C=C(C)C(=O)N(CC)CC(=O)N[C@@H](Cc1ccc(C)cc1C)B(O)O
> 5 µM
6) C=CC(=O)N(CC)CC(=O)N[C@@H](Cc1ccc(C)c(C)c1)B(O)O
> 5 µM
7) C=CC(=O)N(CC)CC(=O)N[C@@H](Cc1coc2ccccc12)B(O)O
0.05 to 0.5 µM
8) C=CC(=O)N(CC(=O)N[C@@H](Cc1ccc(C)cc1C)B(O)O)C(C)C
> 5 µM
9) C#CC(=O)N(CC(=O)N[C@@H](Cc1ccc(C)cc1C)B(O)O)c1ccccc1
0.5 to 5 µM
10) C=CC(=O)N(CC)CC(=O)N[C@@H](Cc1ccc(Cl)cc1)B(O)O
0.5 to 5 µM
11) C=CC(=O)N(CC)CC(=O)N[C@@H](Cc1ccc(F)cc1)B(O)O
> 5 µM
12) C=CC(=O)N(CC(=O)N[C@@H](Cc1ccc(C)cc1C)B(O)O)c1ccccc1F
> 5 µM

* * *

target: human immuno proteasome (LMP7) (Homo sapiens (Human), UniProt P28062); assay: Determination of LMP7 activity (fluorescence intensity assay, Suc-LLVY-AMC); type: biochemical; details: long incubation (120 min)
MEASUREMENT KIND: IC50

1. C=CC(=O)N(C)CC(=O)N[C@H](Cc1ccsc1)B(O)O
500 to 5000 nM
2. C=CC(=O)N(CC(=O)N[C@@H](Cc1ccsc1)B(O)O)c1ccccc1Cl
50 to 500 nM
3. C=CC(=O)N(C)CC(=O)N[C@@H](Cc1cccc2ccccc12)B(O)O
50 to 500 nM
4. C=CC(=O)N(C)[C@@H](C)C(=O)N[C@@H](Cc1ccc(C)c(C)c1)B(O)O
50 to 500 nM
5. C=CC(=O)N(CC(=O)N[C@@H](Cc1ccsc1)B(O)O)c1ccccc1
< 50 nM
6. C=CC(=O)N(CC(=O)N[C@@H](Cc1ccc(C)c(C)c1)B(O)O)CC(F)F
50 to 500 nM
7. CCN(CC(=O)N[C@@H](Cc1ccc(C)cc1C)B(O)O)C(=O)/C=C/C(=O)OC
< 50 nM
8. C=CC(=O)N1CCC[C@@H]1C(=O)N[C@@H](Cc1ccc(Cl)cc1Cl)B(O)O
500 to 5000 nM
9. C=CC(=O)N(CC(=O)NC(Cc1ccsc1)B(O)O)c1ccccc1CC (stereo not drawn)
50 to 500 nM
10. C=CC(=O)N(CC(=O)N[C@@H](Cc1ccsc1)B(O)O)c1ccc(C(=O)N(C)C)cc1
< 50 nM
11. C=CC(=O)N1CCCC[C@@H]1C(=O)N[C@@H](Cc1ccc(Cl)cc1Cl)B(O)O
50 to 500 nM
12. C=CC(=O)N(C)CC(=O)N[C@@H](Cc1ccc(C)c(C)c1C)B(O)O
< 50 nM
13. C=CC(=O)N(CC(=O)N[C@@H](Cc1ccc(C)c(C)c1)B(O)O)C1CC1
< 50 nM
14. C=CC(=O)N(CC(=O)N[C@@H](Cc1ccc(C)cc1C)B(O)O)CC(F)F
50 to 500 nM
15. C=CC(=O)N(CC(=O)N[C@@H](Cc1ccc(Cl)cc1Cl)B(O)O)CC(F)(F)F
< 50 nM
16. C=CC(=O)N(CC)CC(=O)N[C@@H](Cc1ccc(C)c(C)c1C)B(O)O
50 to 500 nM
17. C=CC(=O)N(CC#N)CC(=O)N[C@@H](Cc1ccc(C)c(C)c1)B(O)O
< 50 nM
18. C=CC(=O)N(CC(=O)N[C@@H](Cc1ccc(C)cc1C)B(O)O)C1CC1
< 50 nM
19. C=CC(=O)N(CC(=O)N[C@@H](C[C@@H]1COc2ccccc21)B(O)O)c1ccccc1F
< 50 nM
20. C=CC(=O)N(CC(=O)N[C@@H](Cc1cccs1)B(O)O)c1ccc(Br)cc1
< 50 nM
21. C=CC(=O)N(CC(=O)N[C@@H](Cc1ccc(C)c(C)c1)B(O)O)CC(F)(F)F
< 50 nM
22. C=CC(=O)N(C)CC(=O)N[C@@H](Cc1ccsc1)B(O)O
50 to 500 nM
23. C=CC(=O)N(C)[C@@H](C)C(=O)N[C@@H](Cc1ccc(C)cc1C)B(O)O
50 to 500 nM
24. C=CC(=O)N(C)[C@H](C)C(=O)N[C@@H](Cc1ccc(C)cc1C)B(O)O
500 to 5000 nM
25. C=CC(=O)N(CC(=O)N[C@@H](Cc1ccsc1)B(O)O)c1ccc(OC)c(OC)c1
< 50 nM
26. C=CC(=O)N(C)CC(=O)N[C@@H](Cc1ccc(Cl)c(Cl)c1)B(O)O
< 50 nM
27. C=CC(=O)N(C)CC(=O)N[C@@H](Cc1ccc2ccccc2c1)B(O)O
< 50 nM
28. C=CC(=O)N(CC(=O)N[C@@H](Cc1ccsc1)B(O)O)c1ccc(CC)cc1
< 50 nM
29. C=CC(=O)N(CC(=O)N[C@@H](Cc1ccc(C)cc1C)B(O)O)c1cccc(F)c1F
< 50 nM
30. C=CC(=O)N(CC(=O)N[C@@H](Cc1ccsc1)B(O)O)c1cc(Cl)cc(Cl)c1
< 50 nM

Recorded values, source patent US10669289B2.
